The values you see were collected from paper PMC12416549.

Molecular target: T1, TNFR1 (Homo sapiens, UniProt P19438)
T1 chain: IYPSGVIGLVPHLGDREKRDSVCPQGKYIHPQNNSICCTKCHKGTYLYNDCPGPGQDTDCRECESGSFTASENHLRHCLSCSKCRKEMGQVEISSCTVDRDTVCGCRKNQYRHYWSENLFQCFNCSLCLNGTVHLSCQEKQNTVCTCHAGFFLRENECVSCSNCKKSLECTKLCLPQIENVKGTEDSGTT
Assay: yeast display SC50
REPORTED_ENDPOINT: apparent Kd (screen) (nM)

BINDER | UNIT_TAG | MEAS_VALUE
E104R (designed binder) SMEEEVEKAAKEYEKKKKEAIEKHLEKLKAKDKEAAERFLKELEEAAKEYAKDEAKTMSEEEAKRRAKKYKEKVLLSELSEEEQKEIKEAEEKLVRTILKYVERAAK | nM | 0.446
K93V (designed binder) SMEEEVEKAAKEYEKKKKEAIEKHLEKLKAKDKEAAERFLKELEEAAKEYAKDEAKTMSEEEAKRRAKKYKEKVLLSELSEEEQKEIKEAEEVLVRTILKYVEEAAK | nM | 1.16
I98P (designed binder) SMEEEVEKAAKEYEKKKKEAIEKHLEKLKAKDKEAAERFLKELEEAAKEYAKDEAKTMSEEEAKRRAKKYKEKVLLSELSEEEQKEIKEAEEKLVRTPLKYVEEAAK | nM | 1.86
K71C (designed binder) SMEEEVEKAAKEYEKKKKEAIEKHLEKLKAKDKEAAERFLKELEEAAKEYAKDEAKTMSEEEAKRRAKKYCEKVLLSELSEEEQKEIKEAEEKLVRTILKYVEEAAK | nM | 0.446
